Here the recorded CHLORIDE is given for each entry.
# Species on record: Rattus norvegicus
# Assay Notes: DrugMatrix - Regimen: Daily Repeat
# Type: toxicity, organism-based, Sprague-Dawley
# Design: regimen Daily Repeat, gender Male, age 6-8 weeks
# Condition: in vivo, po, 0 mg/kg, 120 h, tissue Plasma, route oral GAVAGE, dose level Control, time 5 day, vehicle .5 % CMC
Provide the reading as a plain figure in MEQ/L.

C[C@]12CCC(=O)C=C1CC[C@@H]1[C@@H]2C(=O)C[C@@]2(C)[C@H]1CC[C@]2(O)C(=O)CO [CORTISONE] :: 103.17
CCC[C@@H]1C[C@@H](C(=O)N[C@@H]([C@H]2O[C@H](SC)[C@H](O)[C@@H](O)[C@H]2O)[C@@H](C)O)N(C)C1 [LINCOMYCIN] :: 99
CCOC(=O)OC(C)OC1=C(C(=O)Nc2ccccn2)N(C)S(=O)(=O)c2ccccc21 (stereo not drawn) [AMPIROXICAM] :: 102.17
CN1CCC[C@@H]1CCO[C@](C)(c1ccccc1)c1ccc(Cl)cc1 [CLEMASTINE] :: 101.5

Query: Recall and state the measured CHLORIDE for CC(C)[C@H](N)C(=O)OCCOCn1cnc2c(=O)[nH]c(N)nc21 [VALACYCLOVIR] .
Response: 101

Query: Recall and state the measured CHLORIDE for COC(=O)c1ccc(O)cc1 [METHYLPARABEN] .
Response: 100.67

Query: Recall and state the measured CHLORIDE for CCc1cccc2c3c([nH]c12)C(CC)(CC(=O)O)OCC3 (stereo not drawn) [ETODOLAC] .
Response: 103.17

----------
# Organism: Rattus norvegicus
# Assay Notes: DrugMatrix - Regimen: Daily Repeat
# Assay type: toxicity, organism-based, Sprague-Dawley
# Design: regimen Daily Repeat, gender Male, age 6-8 weeks
# Condition: in vivo, po, 0 mg/kg, 120 h, tissue Blood, route oral GAVAGE, dose level Control, time 5 day, vehicle .5 % CMC
Measured Metric: MEAN CORPUSCULAR VOLUME (fL)
Provide the reading as a plain figure in fL.

NCC(=O)O :: 60.65

Query: Recall and state the measured MEAN CORPUSCULAR VOLUME for `O=C1CCc2cc(OCCCCc3nnnn3C3CCCCC3)ccc2N1` .
Response: 63.88

Query: Recall and state the measured MEAN CORPUSCULAR VOLUME for `Brc1ccccc1` .
Response: 59.97

Query: Recall and state the measured MEAN CORPUSCULAR VOLUME for CCc1ccc(C(=O)C(C)CN2CCCCC2)cc1 (stereo not given) .
Response: 63.47

Query: Recall and state the measured MEAN CORPUSCULAR VOLUME for `CC[C@H]1OC(=O)[C@H](C)[C@@H](O[C@H]2C[C@@](C)(OC)[C@@H](O)[C@H](C)O2)[C@H](C)[C@@H](O[C@@H]2O[C@H](C)C[C@H](N(C)C)[C@H]2O)[C@](C)(O)C[C@@H](C)/C(=N\OCOCCOC)[C@H](C)[C@@H](O)[C@]1(C)O` .
Response: 63.72

----------
Here the recorded TOTAL BILIRUBIN is given for each entry.
# Organism: Rattus norvegicus
# Assay Notes: DrugMatrix - Regimen: Daily Repeat
# Assay type: toxicity, organism-based, Sprague-Dawley
# Set-up: regimen Daily Repeat, gender Male, age 6-8 weeks
# Condition: in vivo, po, 0 mg/kg, 120 h, tissue Plasma, route oral GAVAGE, dose level Control, time 5 day, vehicle .5 % CMC

Here is how some compounds turned out for TOTAL BILIRUBIN.
COc1c(C)c2c(c(O)c1C/C=C(\C)CCC(=O)OCCN1CCOCC1)C(=O)OC2 [MYCOPHENOLATE MOFETIL] :: 0.2 mg/dL
CC(C)[C@H](N)C(=O)OCCOCn1cnc2c(=O)[nH]c(N)nc21 [VALACYCLOVIR] :: 0.2 mg/dL
CC1(C)[C@H]2CC[C@]1(C)C(=O)C2 [(-)-CAMPHOR] :: 0.2 mg/dL

Query: Recall and state the measured TOTAL BILIRUBIN for CCc1ccc(C(=O)C(C)CN2CCCCC2)cc1 (stereo unspecified) [EPERISONE] .
Response: 0.2 mg/dL

Query: Recall and state the measured TOTAL BILIRUBIN for CN1CCC[C@@H]1CCO[C@](C)(c1ccccc1)c1ccc(Cl)cc1 [CLEMASTINE] .
Response: 0.2 mg/dL

Query: Recall and state the measured TOTAL BILIRUBIN for `CC(/C=C1\SC(=S)N(CC(=O)O)C1=O)=C\c1ccccc1` .
Response: 0.2 mg/dL

FYI, the data here is from ChEMBL document CHEMBL3885881.
